Target: UniProt Q9UM07
Assay: RFMS Human PAD4 Functional Assay 1
Settings: RFMS assay 1; 5 nM hPAD4, 250 μM BAEE substrate, 50 μM calcium, 37° C.
pIC50: −log10 of the molar value.
Mark class 1 for reported pIC50 of 7 or greater; mark class 0 for anything smaller.

Example entries and their recorded answers appear below.
[
  {
    "compound": "Cc1c(-c2cc3ccc(N4CCC(n5cccn5)CC4)cc3n2CC2CC2)nn2cc(C(=O)N3CCC[C@@H](N)C3)ccc12",
    "group.label": "class 0"
  },
  {
    "compound": "Cc1c(-c2cc3ccc(-c4ccc(Cl)c5c(NS(C)(=O)=O)nn(C)c45)cc3n2CC2CC2)nn2cc(C(=O)N3CC4CCC3[C@@H]4N)ccc12 (stereo partly shown)",
    "group.label": "class 1"
  }
]

// query Textbook exercise: given the entry Cc1c(-c2cc3cccc(C4CN(C(=O)[C@@H]5CCC[C@H](O)C5)C4)c3n2CC2CC2)nn2cc(C(=O)N3CCC[C@@H](N)C3)ccc12 , state whether its pIC50 is greater than or equal to 7.
// result class 0

// query Item COc1cc(C(=O)N2C[C@H](N)C[C@@H](F)C2)cn2nc(-c3cc4ccc(C5CC5)nc4n3CC3CC3)c(C)c12 with pIC50 of 7 or above?
// result class 0

// query Does the compound COc1cc(C(=O)N2CCC[C@@H](N)C2)cn2nc(-c3cc4ccnc(OCCn5cnnc5)c4n3CC3CC3)c(C)c12 have recorded pIC50 that is 7 or more?
// result class 1

----------
Molecular target: human PAD4 (hPAD4) (Homo sapiens (Human), UniProt Q9UM07)
Sequence (Q9UM07 whole entry): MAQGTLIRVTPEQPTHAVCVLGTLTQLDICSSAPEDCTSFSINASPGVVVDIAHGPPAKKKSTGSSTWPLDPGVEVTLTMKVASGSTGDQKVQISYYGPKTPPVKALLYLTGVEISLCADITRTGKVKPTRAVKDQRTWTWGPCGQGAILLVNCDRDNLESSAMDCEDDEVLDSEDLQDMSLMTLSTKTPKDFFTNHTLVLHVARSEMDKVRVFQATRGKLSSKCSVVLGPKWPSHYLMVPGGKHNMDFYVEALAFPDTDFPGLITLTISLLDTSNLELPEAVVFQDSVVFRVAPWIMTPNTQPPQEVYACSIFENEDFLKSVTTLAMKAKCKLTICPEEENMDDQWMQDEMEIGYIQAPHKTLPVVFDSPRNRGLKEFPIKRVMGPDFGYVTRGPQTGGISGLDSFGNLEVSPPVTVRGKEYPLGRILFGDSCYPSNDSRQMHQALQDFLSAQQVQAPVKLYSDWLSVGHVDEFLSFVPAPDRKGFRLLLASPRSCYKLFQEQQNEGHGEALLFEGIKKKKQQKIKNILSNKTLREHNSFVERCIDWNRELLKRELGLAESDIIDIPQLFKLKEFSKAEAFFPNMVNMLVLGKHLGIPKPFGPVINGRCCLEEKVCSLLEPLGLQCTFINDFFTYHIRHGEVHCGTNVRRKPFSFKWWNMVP
Experiment: RFMS Human PAD4 Functional Assay 1
Settings: RFMS assay 1; 5 nM hPAD4, 250 μM BAEE substrate, 50 μM calcium, 37° C.
Catalogue of molecules with associated pIC50
The meaning of pIC50 here: minus log10 of the concentration in molar units.

As a guide, the following entries are already answered.
[
  {
    "molecule": "COc1cc(C(=O)N2CC3CCC2[C@@H]3N)cc2oc(-c3cc4ccc(Cl)nc4n3CC3CC3)c(C)c12 (stereo partly drawn) [Example 146]",
    "recorded.result": 5.92
  },
  {
    "molecule": "Cc1c(-c2cc3cccc(C4CCN(C(=O)[C@@H](C)O)CC4)c3n2CC2CC2)nn2cc(C(=O)N3C[C@H](N)C[C@@H](F)C3)ccc12 [Example 472]",
    "recorded.result": 7.22
  },
  {
    "molecule": "Cc1c(-c2cc3ccc(-c4ccn5c(C)nnc5c4)nc3n2CC2CC2)nn2cc(C(=O)N3CC4CCC3[C@@H]4N)cc(F)c12 (stereo partly drawn) [Example 43]",
    "recorded.result": 6.82
  },
  {
    "molecule": "Cc1c(-c2cc3ccc(-c4ccc(NS(C)(=O)=O)cc4)cc3n2CC2CC2)nn2cc(C(=O)N3CCC[C@@H](N)C3)ccc12 [Example 347]",
    "recorded.result": 6.54
  },
  {
    "molecule": "Cc1c(-c2cc3ccc(N4CCC(S(C)(=O)=O)CC4)cc3n2CC2CC2)nn2cc(C(=O)N3CC4CCC3[C@@H]4N)ccc12 (stereo partly drawn) [Example 351]",
    "recorded.result": 7.00
  }
]

Shifting focus to the molecule that follows.
Value of pIC50 reported for the molecule CC(=O)Nc1ccc(-c2ccc3cc(-c4nn5cc(C(=O)N6CCC[C@@H](N)C6)ccc5c4C)n(CC4CC4)c3c2)cn1 [Example 348] is 6.85

----------
Biological target: UniProt Q9UM07
Assay: RFMS Human PAD4 Functional Assay 1
Conditions: RFMS assay 1; 5 nM hPAD4, 250 μM BAEE substrate, 50 μM calcium, 37° C.
quantity.measured: pIC50
# log scale: pIC50 equals minus log10 of the concentration in mol/L

For this compound ( COc1cc(C(=O)N2CC3CCC2[C@@H]3N)cn2nc(-c3cc4ccc(C5CC5)nc4n3CC3CC3)c(C)c12 (stereo partly drawn) [Example 6] ), measured pIC50 is 7.49

Item: COc1cc(C(=O)N2CCC[C@@H](N)C2)cn2nc(-c3cc4ccc(N5CCC(S(C)(=O)=O)CC5)cc4n3CC3CC3)c(C)c12 [Example 248] | pIC50: 7.22

Kindly note the recorded pIC50 for Cc1c(-c2cc3ccc(-c4cc(Cl)c(CO)cc4F)cc3n2CC2CC2)nn2cc(C(=O)N3C[C@H](N)C[C@@H](F)C3)ccc12 [Example 375] , which is 5.87

----------
Target: human PAD4 (hPAD4) (Homo sapiens (Human))
Assay: RFMS Human PAD4 Functional Assay 1
Assay type: biochemical
Conditions: RFMS assay 1; 5 nM hPAD4, 250 μM BAEE substrate, 50 μM calcium, 37° C.
// reported pIC50 for each item listed
Worth noting: pIC50 values are minus log10 of concentrations stated in mol/L.

Observe how each entry below is paired with its result.
[
  {
    "compound": "Cc1c(-c2cc3ccc(N4CCC(S(C)(=O)=O)CC4)nc3n2CC2CC2)nn2cc(C(=O)N3CC4CCC3[C@@H]4N)cc(F)c12 (stereo partly shown) [Example 268]",
    "pIC50": 7.40
  },
  {
    "compound": "Cc1c(-c2cc3ccc(OCC4CNC(=O)C4)nc3n2CC2CC2)nn2cc(C(=O)N3CC4CCC3[C@@H]4N)cc(F)c12 (mixture of isomers) [Example 275]",
    "pIC50": 6.92
  },
  {
    "compound": "COc1cc(C(=O)N2C[C@H](N)C[C@@H](F)C2)cc2sc(-c3cc4ccc(-c5ccc6c(c5)C(=O)NC6)cc4n3CC3CC3)c(C)c12 [Example 143]",
    "pIC50": 6.23
  }
]

// moving on: another record for pIC50
Reported pIC50 ( COc1cc(C(=O)N2C[C@H](N)C[C@@H](F)C2)cn2nc(-c3cc4cccc(OCCn5cc(N)cn5)c4n3CC3CC3)c(C)c12 [Example 557] ) = 8.00

----------
Molecular target: human PAD4 (hPAD4) (Homo sapiens (Human))
Assay: RFMS Human PAD4 Functional Assay 1
Details: RFMS assay 1; 5 nM hPAD4, 250 μM BAEE substrate, 50 μM calcium, 37° C.
Note to self: use Yes only for IC50 readings below 200 nM; a reading exactly at 200 nM still gets No.

Below, 8 compounds whose answers are already recorded.
[
  {
    "compound": "Cc1c(-c2cc3cccc(C4CCN(C(=O)C5CCCO5)CC4)c3n2CC2CC2)nn2cc(C(=O)N3C[C@H](N)C[C@@H](F)C3)ccc12 (mixture of isomers)",
    "group.label": "Yes"
  },
  {
    "compound": "Cc1c(-c2cc3ccnc(OCCn4ccnc4C)c3n2CC2CC2)nn2cc(C(=O)N3C[C@H](N)C[C@@H](F)C3)ccc12",
    "group.label": "No"
  },
  {
    "compound": "Cc1cc(C(N)=O)c(F)cc1-c1ccc2cc(-c3nn4cc(C(=O)N5CC6CCC5[C@@H]6N)cc(F)c4c3C)n(CC3CC3)c2n1 (stereo partly shown)",
    "group.label": "No"
  },
  {
    "compound": "Cc1c(-c2cc3ccc(-c4ccc(C(N)=O)cc4Cl)cc3n2CC2CC2)nn2cc(C(=O)N3C[C@H](N)C[C@@H](F)C3)ccc12",
    "group.label": "Yes"
  },
  {
    "compound": "Cc1c(-c2cc3ccc(N4CCC(S(C)(=O)=O)CC4)nc3n2CC2CC2)nn2cc(C(=O)N3CC4CCC3[C@@H]4N)ccc12 (stereo partly shown)",
    "group.label": "Yes"
  },
  {
    "compound": "CC(=O)N(C)C1CCN(c2ccc3cc(-c4nn5cc(C(=O)N6CCC[C@@H](N)C6)ccc5c4C)n(CC4CC4)c3c2)CC1",
    "group.label": "No"
  },
  {
    "compound": "COc1cc(C(=O)N2CCC[C@@H](N)C2)cn2nc(-c3cc4cccc(C5CCN(C(=O)[C@H]6CC[C@H](O)CC6)CC5)c4n3CC3CC3)c(C)c12",
    "group.label": "Yes"
  },
  {
    "compound": "COc1cc(C(=O)N2CCC[C@@H](N)C2)cn2nc(-c3cc4cccc(C5CCN(C(=O)[C@@H](C)OC)CC5)c4n3CC3CC3)c(C)c12",
    "group.label": "Yes"
  }
]

Consider now this further compound.
// query Criterion: IC50 strictly below 200 nM. Is it met by Cc1c(-c2cc3ccc(N4CCC(N5CCOC5=O)CC4)cc3n2CC2CC2)nn2cc(C(=O)N3C[C@H](N)C[C@@H](F)C3)ccc12 ?
// result Yes

----------
Molecular target: UniProt:Q9UM07
Test: RFMS Human PAD4 Functional Assay 1
Settings: RFMS assay 1; 5 nM hPAD4, 250 μM BAEE substrate, 50 μM calcium, 37° C.
Description: RFMS Human PAD4 Functional Assay 1: Compounds were solubilized in 100% DMSO to achieve all) mM compound concentration. Compound stock solutions were stored at RT. A series of dilutions were prepared in DMSO and mixed 8 times with 20 μL mixing volume. Final top concentration of compound in the assay is 50 μM. […] MRM transition of product and internal standard were monitored at m/z 424.5 to 350.4 and m/z 293 to 247 respectively. […]
quantity.measured: pIC50
Recall that pIC50 is obtained by taking minus log10 of the concentration measured in molar.

[
  {
    "compound": "COc1cc(C(=O)N2C[C@H](N)C[C@@H](F)C2)cn2nc(-c3cc4ccc(C)nc4n3CC3CC3)c(C)c12",
    "pIC50": 7.12
  },
  {
    "compound": "COc1cc(C(=O)N2C[C@H](N)C[C@@H](F)C2)cn2nc(-c3cc4ccc(N5CCC(N(C)S(C)(=O)=O)CC5)cc4n3CC3CC3)c(C)c12",
    "pIC50": 6.89
  },
  {
    "compound": "COc1cc(C(=O)N2CC3CCC2[C@@H]3N)cc2oc(-c3cc4cccnc4n3CC3CC3)c(C)c12 (some centres unmarked)",
    "pIC50": 6.55
  },
  {
    "compound": "Cc1c(-c2cc3ccc(Cl)nc3n2CC2CC2)oc2cc(C(=O)N3CC4CCC3[C@@H]4N)ccc12 (some centres unmarked)",
    "pIC50": 6.70
  },
  {
    "compound": "Cc1c(-c2cc3cccc(OCC4CNC(=O)C4)c3n2CC2CC2)nn2cc(C(=O)N3C[C@H](N)C[C@@H](F)C3)ccc12 (single isomer, unassigned) [Example 590]",
    "pIC50": 7.52
  }
]

pIC50 for Cc1c(-c2cc3cccc(C4CCN(C(=O)C(C)(C)O)CC4)c3n2CC2CC2)nn2cc(C(=O)N3CCC[C@@H](N)C3)ccc12 is 6.52

Reported pIC50 ( CO[C@@H](C)C(=O)N1CCC(c2cc(F)cc3cc(-c4nn5cc(C(=O)N6C[C@H](N)C[C@@H](F)C6)ccc5c4C)n(CC4CC4)c23)CC1 ) = 6.62

Entry Cc1c(-c2cc3cc(F)cc(C4CCN(C(=O)[C@H]5CC[C@H](O)CC5)CC4)c3n2CC2CC2)nn2cc(C(=O)N3CCC[C@@H](N)C3)ccc12 — recorded pIC50 = 6.82

The value of pIC50 measured for the compound COc1cc(C(=O)N2CC3CCC2[C@@H]3N)cn2nc(-c3cc4ccc(-c5ccn6c(C)nnc6c5)nc4n3CC3CC3)c(C)c12 (some centres unmarked) turned out to be 7.43

For this compound ( COc1cc(C(=O)N2CCC[C@@H](N)C2)cn2nc(-c3cc4ccc(N5CCC(OC)CC5)cc4n3CC3CC3)c(C)c12 ), measured pIC50 is 7.10

Please fill in: pIC50 reported for Cc1c(-c2cc3ccc(-c4cccc(O)c4Cl)nc3n2CC2CC2)nn2cc(C(=O)N3CCC[C@@H](N)C3)ccc12 = 7.00
